The compounds listed here are annotated with their selectivity ratio.
- experiment.summary: Therapeutic index, ratio of CC50 for human C8166 cells to EC50 for HIV-1 3B infected in human C8166 cells
- Type: cell-based
- run.conditions: C8166 cells (CC50) and HIV-1 3B infected C8166 cells (EC50)

- record.smiles: "Cc1cn([C@H]2C[C@H](N=[N+]=[N-])[C@@H](CO)O2)c(=O)[nH]c1=O"
  selectivity ratio: "> 5880"
- record.smiles: "C=C(C)[C@H](O)COc1cc(OC)c2c(c1)C(=O)c1cc(O)cc(O)c1-2"
  selectivity ratio: "> 127"
- record.smiles: "C=C(C)[C@H](O)COc1cc(OC)c2c(c1)C(=O)c1c(O)ccc(O)c1-2"
  selectivity ratio: "> 137"
